- studyTarget: profilin-1 (PFN1) WT (Homo sapiens, UniProt P07737)
- Construct: recombinant, SUMO tag cleaved, 15N labeled
- Sequence (P07737 2-140): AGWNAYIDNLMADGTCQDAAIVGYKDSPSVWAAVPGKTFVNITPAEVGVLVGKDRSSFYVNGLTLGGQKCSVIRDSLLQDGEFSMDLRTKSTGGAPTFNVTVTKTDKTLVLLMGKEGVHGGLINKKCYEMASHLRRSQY
- methodSummary: […]-1H HSQC NMR titration (global fit); DSF
quantityKind: Kd
Number first, unit second: that is the form wanted.

(Q) Write down the reported Kd of CCCCCCCC(=O)OC[C@H](COP(=O)(O)O[C@@H]1[C@H](O)[C@H](OP(=O)(O)O)[C@@H](O)[C@H](O)[C@H]1O)OC(=O)CCCCCCC , test system: profilin-1 (PFN1) WT (Homo sapiens, UniProt P07737).
(A) 1880 µM
